Measured IC50, listed per entry.
# Species: Homo sapiens
# procedure.summary: In vitro inhibition of arachidonic acid induced platelet aggregation of human platelet-rich plasma
# Format: functional
# condition.notes: read-out: I50
measured.attribute: IC50 (µM)

| compound | recorded.result |
| --- | --- |
| CCCCCCOC[C@@H]1C2CCC(O2)[C@@H]1C/C=C\CCCC(=O)O (stereo in doubt; 10) | 10 |
| CCCCCCOC[C@@H]1C2CCC(O2)[C@H]1C/C=C\CCCC(=O)O (stereo in doubt; 1) | 0.5 |
| CCCCCCOC[C@@H]1C2CCC(O2)[C@@H]1C/C=C\CCCC(=O)O (single isomer, unassigned; (-)) | 38.5 |

Cited source: ChEMBL document CHEMBL1123449
